# Test system: CCRIS mutagenicity, Ames/micronucleus/aberration tests
# experimental_protocol: CCRIS mutagenicity studies
# condition_label: Test System: AMES SALMONELLA TYPHIMURIUM; Strain/Indicator: TA98(NR); Metabolic Activation: NONE; Method: PREINCUBATION
Calls of active or inactive are those of the source. No rule for the calls is given here.
Outcome codes: active, inactive

| substance_smiles | discrete_label |
| --- | --- |
| O=c1oc2cc([N+](=O)[O-])ccc2c2ccccc12 | active |
| O=[N+]([O-])c1ccc2nc3ccc([N+](=O)[O-])cc3nc2c1 | active |
| O=[N+]([O-])c1cccc2nc3c([N+](=O)[O-])cccc3nc12 | inactive |
